experiment: Stability of the compound in PBS buffer assessed as half life at 250 uM at pH 7.4 in presence of GSH by HPLC analysis; assay type: physicochemical; details: pH 7.4, 250 µM
readout label: t1/2 (days)

smiles structure	unit annotation	t1/2
O=C(Nc1ccc2c(c1)OCO2)C(F)(F)F	days	5.42

I = O=C(Nc1ccc2c(c1)OCO2)C(F)(F)Br
II = NC(=O)Nc1ccc(OC(F)(F)I)cc1
// query I'd appreciate it if you could identify which of I and II has the greater t1/2. Mark your answer with the label of the selected entry.
// result I

A = O=C(Nc1ccc2c(c1)OCO2)C(F)(F)Cl
B = NC(=O)Nc1ccc(OC(F)(F)Br)cc1
// query I'd appreciate it if you could identify which of A and B has the greater t1/2. Mark your answer with the label of the selected entry.
// result A
(A: 10.8 days, B: 0.221 days)

====

target: Mitogen-activated protein kinase 8 (Homo sapiens, UniProt P45983); experiment: Binding affinity to JNK1 (2 to 364 residues) (unknown origin) expressed in Escherichia coli BL21(DE3) assessed as dissociation constant by isothermal titration calorimetry assay
Sequence (P45983 whole entry, the tested form may be a part): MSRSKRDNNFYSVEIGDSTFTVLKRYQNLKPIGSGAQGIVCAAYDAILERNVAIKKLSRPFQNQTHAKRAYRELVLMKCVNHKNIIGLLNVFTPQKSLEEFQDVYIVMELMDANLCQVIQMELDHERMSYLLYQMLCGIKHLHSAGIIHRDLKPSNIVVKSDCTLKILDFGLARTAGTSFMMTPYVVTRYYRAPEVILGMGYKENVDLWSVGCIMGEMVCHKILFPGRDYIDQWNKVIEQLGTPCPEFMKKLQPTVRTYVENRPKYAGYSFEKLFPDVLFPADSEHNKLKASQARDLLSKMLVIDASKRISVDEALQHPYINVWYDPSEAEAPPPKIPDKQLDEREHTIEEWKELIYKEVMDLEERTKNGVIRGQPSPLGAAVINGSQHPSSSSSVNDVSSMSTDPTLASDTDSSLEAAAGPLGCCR
readout label: Kd

Examples with answers:
smiles structure	system name	result
O=C(Nc1ccc(Cn2cncn2)cc1)C(F)(F)Br	Mitogen-activated protein kinase 8 (Homo sapiens, UniProt P45983)	Not Active
O=C(Nc1cccc2nsnc12)C(F)(F)Br	Mitogen-activated protein kinase 8 (Homo sapiens, UniProt P45983)	Not Active
O=C(NCCc1c[nH]c2ccccc12)C(F)(F)Cl	Mitogen-activated protein kinase 8 (Homo sapiens, UniProt P45983)	Not Active
O=C(Nc1ccc(F)cc1)C(F)(F)Br	Mitogen-activated protein kinase 8 (Homo sapiens, UniProt P45983)	Not Active
CCOC(=O)c1c(NC(=O)C(F)(F)Br)sc2c1CCCC2	Mitogen-activated protein kinase 8 (Homo sapiens, UniProt P45983)	Not Active
NC(=O)Nc1ccc(NC(=O)C(F)(F)Br)cc1	Mitogen-activated protein kinase 8 (Homo sapiens, UniProt P45983)	Not Active

// query Report measured Kd; entry is O=C(c1ccco1)N1CCN(C(=O)C(F)(F)Br)CC1
// result Not Active

// query Report measured Kd; entry is COC(=O)c1scc(C)c1NC(=O)C(F)(F)Cl
// result Not Active

// query Report measured Kd; entry is O=C(Nc1ccc2c(c1)OCO2)C(F)(F)Cl
// result Not Active

====

target: Mitogen-activated protein kinase 10 (Homo sapiens, UniProt P53779); assay: Binding affinity to JNK3 (39 to 402 residues) (unknown origin) expressed in Escherichia coli BL21(DE3) assessed as dissociation constant by isothermal titration calorimetry assay; details: read-out: Kd
Sequence (P53779 whole entry, the tested form may be a part): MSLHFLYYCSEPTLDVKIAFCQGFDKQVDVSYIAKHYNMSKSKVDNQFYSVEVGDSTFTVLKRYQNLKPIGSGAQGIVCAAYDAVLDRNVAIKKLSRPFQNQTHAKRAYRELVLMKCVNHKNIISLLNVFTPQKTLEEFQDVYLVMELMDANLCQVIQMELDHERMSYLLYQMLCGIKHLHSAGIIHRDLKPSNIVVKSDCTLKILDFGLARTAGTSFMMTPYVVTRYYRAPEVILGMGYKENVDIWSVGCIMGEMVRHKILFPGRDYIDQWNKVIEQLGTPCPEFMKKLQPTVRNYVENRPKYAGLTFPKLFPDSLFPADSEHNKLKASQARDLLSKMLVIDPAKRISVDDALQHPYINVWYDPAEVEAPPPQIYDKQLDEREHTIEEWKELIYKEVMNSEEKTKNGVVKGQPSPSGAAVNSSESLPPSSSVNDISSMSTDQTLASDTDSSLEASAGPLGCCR
pKd: −log10 of the molar value.
readout label: pKd

Examples with answers:
smiles structure	pKd
O=C(Nc1nnc(-c2ccncc2)s1)C(F)(F)Br	4.77
O=C(Nc1nncs1)C(F)(F)Cl	3.61
O=C(Nc1nncs1)C(F)(F)Br	3.61
O=C(Nc1nncs1)C(F)(F)I	3.73

A = O=C(Nc1nnc(-c2ccncc2)s1)C(F)(F)Cl
B = O=C(Nc1nnc(-c2ccncc2)s1)C(F)(F)I
// query Compare A and B and name the one whose reported pKd is smaller. Mark your answer with the label of the selected entry.
// result A
(A: 4.64, B: 4.89)

====

target: Mitogen-activated protein kinase 8 (Homo sapiens); test: Binding affinity to JNK1 (2 to 364 residues) (unknown origin) expressed in Escherichia coli BL21(DE3) assessed as dissociation constant by isothermal titration calorimetry assay; settings: read-out: Kd
readout label: Kd (µM)

Examples with answers:
smiles structure	system name	readout label	result number
Nc1nnc(-c2ccncc2)s1	Mitogen-activated protein kinase 8 (Homo sapiens)	Kd	162
O=C(Nc1nnc(-c2ccncc2)s1)C(F)(F)Cl	Mitogen-activated protein kinase 8 (Homo sapiens)	Kd	20
O=C(Nc1nncs1)C(F)(F)I	Mitogen-activated protein kinase 8 (Homo sapiens)	Kd	104
O=C(Nc1nncs1)C(F)(F)Cl	Mitogen-activated protein kinase 8 (Homo sapiens)	Kd	186
O=C(Nc1nncs1)C(F)(F)Br	Mitogen-activated protein kinase 8 (Homo sapiens)	Kd	193

P = O=C(Nc1nnc(-c2ccncc2)s1)C(F)(F)Br
Q = O=C(Nc1nnc(-c2ccncc2)s1)C(F)(F)I
// query I'd appreciate it if you could identify which of P and Q has the greater Kd. Mark your answer with the label of the selected entry.
// result P
(P: 15 µM, Q: 10 µM)

====

test: Stability of the compound in PBS buffer assessed as half life at 250 uM at pH 7.4 in presence of GSH by HPLC analysis; format: physicochemical; conditions: pH 7.4, 250 µM
readout label: t1/2

// query Report measured t1/2; entry is O=C(Nc1ccc2c(c1)OCO2)C(F)(F)I
// result 12.1 days

====

target: Mitogen-activated protein kinase 8 (Homo sapiens, UniProt P45983); assay: Binding affinity to JNK1 (2 to 364 residues) (unknown origin) expressed in Escherichia coli BL21(DE3) assessed as dissociation constant by isothermal titration calorimetry assay; settings: read-out: Kd
# Kd per entry

// query Report measured Kd; entry is O=C(Nc1ccc2c(c1)OCO2)C(F)(F)Br
// result > 1000 µM

// query Report measured Kd; entry is O=C(Nc1nccs1)C(F)(F)Br
// result > 1000 µM

// query Report measured Kd; entry is O=C(c1cnc2ccccn12)C(F)(F)Cl
// result > 1000 µM
